Test system: Mycobacterium tuberculosis
methodSummary: Antimycobacterial against multidrug resistant Mycobacterium tuberculosis by agar dilution method
Assay type: functional
readoutName: log10 MIC (log10 of the value in µM)
Lab note - MIC converted to log10 from values in µM.

Record excerpt, results attached:
[
  {
    "compound": "CN1CCC(=O)[C@]2(C1)[C@@H](c1ccccc1Cl)[C@@H]1CCCN1[C@@]21C(=O)Nc2ccccc21",
    "assaySystem": "Mycobacterium tuberculosis",
    "experimentalValue": 0.55
  },
  {
    "compound": "NC(=O)c1cnccn1 [PYRAZINAMIDE]",
    "assaySystem": "Mycobacterium tuberculosis",
    "experimentalValue": 2.61
  },
  {
    "compound": "CC[C@@H](CO)NCCN[C@@H](CC)CO [ETHAMBUTOL]",
    "assaySystem": "Mycobacterium tuberculosis",
    "experimentalValue": 1.79
  },
  {
    "compound": "CN1CCC(=O)[C@]2(C1)[C@@H](c1ccc(Cl)cc1Cl)[C@@H]1CCCN1[C@@]21C(=O)Nc2ccccc21",
    "assaySystem": "Mycobacterium tuberculosis",
    "experimentalValue": 0.22
  },
  {
    "compound": "CN1CCC(=O)[C@]2(C1)[C@@H](c1ccc(Cl)cc1Cl)CN(C)[C@@]21C(=O)Nc2ccccc21",
    "assaySystem": "Mycobacterium tuberculosis",
    "experimentalValue": -0.06
  }
]

Moving on to the next compound.
Inquiry: Could you share which log10 MIC value was measured for NNC(=O)c1ccncc1 [ISONIAZID] ?
Reply text: 1.06
